Molecular target: reporter protein DTPA-V5-TMD-mRuby3 (DTPA-R) on Jurkat cells (Homo sapiens, UniProt P80188, C107S/D67E/D97E/I100T/I61A/I75T/K154S/K66P/K70L/K95M/L127F/L56R/L62P/L90R/M71L/N85D/P68L/Q48H/Q69L/R101M/R63P/S119N/S147Q/S88A/T156S/T74Q/V53Q/W99L/Y158L/Y72T)
Construct: to Jurkat cells expressing the reporter protein DTPA-V5-TMD-mRuby3 was assessed
Sequence (P80188 21-197 with the stated changes): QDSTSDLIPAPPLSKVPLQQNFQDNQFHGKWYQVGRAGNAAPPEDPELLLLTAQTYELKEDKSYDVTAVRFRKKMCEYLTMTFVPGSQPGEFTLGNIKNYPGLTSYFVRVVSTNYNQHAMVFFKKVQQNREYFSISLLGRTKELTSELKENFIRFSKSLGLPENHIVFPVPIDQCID
Test: Competition radioligand binding assay (Y-90 radioligand vs Y-89 charged chelator) on Jurkat cells
Settings: competition of fixed amount of Y-90 radioligand by dilution series of Y-89 charged chelator, FIG. 14A
measured property: pIC50
Please report pIC50 as the negative decimal logarithm of the molar concentration, giving only the number.

Query (compound): `Nc1ccc(C[C@H](CN(CC(=O)O)[C@H]2CCCC[C@@H]2N(CC(=O)O)CC(=O)O)N(CC(=O)O)CC(=O)O)cc1` ; field requested: pIC50 8.85
